- measurement.target: T1, SARS-COV-2 RBD (SARS-COV-2, UniProt P0DTC2 319-539)
- T1 construct: also called WT RBD
- measurement.notes: ELISA, RBD coated on plate
quantity.name: EC50 (ng/mL)

binder | quantity.name | unit.abbrev | quantitative.result
C936 (antibody, V domains shown) VH: EVQLVESGGGLIQPGGSLRLSCAASGFTVSSNYMSWVRQAPGKGLEWVSVIYSGGSTFYADSVKGRFTISRDNSKNTLYLQMNSLRAEDTAVYYCARDLGTGLFDYWGQGTLVTVSS VL: DIQLTQSPSFLSASVGDRVTITCRASQGISSYLAWYQQKPGKAPKLLIYAASTLQSGVPSRFSGSGSGTEFTLTISSLQPEDFATYYCQQLDSYPPGTFGPGTKVDIK | EC50 | ng/mL | 1.56
C918 (antibody, V domains shown) VH: QVQLVESGGGLVKPGGSLRLSCTASGFTFSDYYMTWLRQAPGKGLEWVSYISSTSPYTSYADSVKGRFTISRDNARNSVYLQMNSLRAEDTAIYYCARVPPPQRLHPFDVWGQGTMVTVSS VL: DIQMTQSPSTLSASVGDRVTITCRASQSISSWLAWYQQKPGKAPKLLIYQASSLESGVPSRFSGSGSGTDFTLTISSLQPDDFATYYCQQYFRYSWTFGQGTKVEI | EC50 | ng/mL | 1.78
C1051 (antibody, V domains shown) VH: EVQLVESGGGLVQPGRSLRLSCVASGFTFDDYGLHWVRQAPGKGLEWVSGISWNSDSIGYADSVKGRFAISRDNARTSLYLQMNRLRAEDTALYYCAKAASRSTRIGGAFDIWGQGTMVTVSS VL: QSALTQPASVSGSPGQSITISCTGTSSDVGGYNLVSWYQQYPGKAPKLMIYEDSKRPSGVSHRFSGSKSGNTASLTISGLQAEDEADYYCCSYAFSFTNVFGTGTKVTV | EC50 | ng/mL | 1.4
